All values here come from patent US7786141B2.

Catalogue of compounds with associated Emax
- assayTarget: M1 muscarinic receptor (Homo sapiens, UniProt P11229)
- Construct: expressed in transfected cells; host or cells: CHO (M1-CHO)
- Sequence (P11229 whole entry): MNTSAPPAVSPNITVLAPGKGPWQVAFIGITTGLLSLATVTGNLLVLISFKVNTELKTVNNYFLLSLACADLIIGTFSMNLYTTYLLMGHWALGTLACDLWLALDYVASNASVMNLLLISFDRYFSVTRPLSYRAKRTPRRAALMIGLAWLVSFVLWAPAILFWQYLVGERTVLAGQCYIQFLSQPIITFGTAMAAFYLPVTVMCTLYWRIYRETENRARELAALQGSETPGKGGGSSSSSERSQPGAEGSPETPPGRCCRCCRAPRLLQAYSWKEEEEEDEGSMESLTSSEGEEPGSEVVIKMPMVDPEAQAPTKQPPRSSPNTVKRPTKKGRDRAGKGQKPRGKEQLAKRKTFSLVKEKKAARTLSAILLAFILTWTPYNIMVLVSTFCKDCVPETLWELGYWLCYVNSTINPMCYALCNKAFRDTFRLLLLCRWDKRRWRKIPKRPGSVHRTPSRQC
- runDescription: Functional mobilization of intracellular calcium (FLIPR) in M1-CHO cells
- Format: cell-based
- conditionInfo: M1 receptor, calcium mobilization; read-out: M1 Efficacy

Sample records with Emax:
>>> print(df.to_string())
                                   compound  experimentalresult
0  CCOC(=O)N(C)[C@H]1CC2(CCN(C[C@H]3C[C@H]4CC[C@H]3C4)CC2)c2ccccc21           65 to 85%
1  O=C(C1CCC1)N1C2CCC1CC(N1CCC3(CC1)COc1ccc(F)cc13)C2 (centres unmarked)               > 85%
2  C#CCCOC(=O)N1C2CCC1CC(N1CCC3(CC1)CN(C(=O)N(C)C)c1ccc(F)cc13)C2 (centres unmarked)               < 65%
3  CC(=O)N[C@H]1CC2(CCN(C3CCC[C@@H](C)C3)CC2)c2ccccc21 (some centres unmarked)           65 to 85%
4  COCCOC(=O)N1C2CCC1CC(N1CCC3(CC1)CN(C(=O)N(C)C)c1ccc(F)cc13)C2 (centres unmarked)               < 65%

Consider the additional compound presented here.
Query :: Return reported Emax; argument: CC(=O)NC1CC2(CCN(C[C@H]3C[C@H]4C=C[C@H]3C4)CC2)c2ccccc21 (some centres unmarked)
Result :: 65 to 85%

###

Catalogue of molecules with associated Emax
- assayTarget: M1 muscarinic receptor (Homo sapiens, UniProt P11229)
- Construct: expressed in transfected cells; host or cells: CHO (M1-CHO)
- runDescription: Functional mobilization of intracellular calcium (FLIPR) in M1-CHO cells
- Format: cell-based
- conditionInfo: M1 receptor, calcium mobilization; read-out: M1 Efficacy

Sample records with Emax:
In [3]: df
Out[3]:
                                   molecule  resulttype  experimentalresult
0  CCOC(=O)N1CCC(N2CCC3(CC2)CN(C(=O)c2ccc(OC)cc2)c2ccc(F)cc23)CC1 [compound 41]        Emax               > 85%
1  COC(=O)N1CC2(CCN(C3CC4CCC(C3)N4C(=O)OC)CC2)c2cc(F)ccc21 (stereo not drawn) [compound 235]        Emax           65 to 85%

Consider the additional molecule presented here.
Query :: API: value(readout= Emax, system= M1 muscarinic receptor (Homo sapiens, UniProt P11229), query= CCOC(=O)N1C2CCC1CC(N1CCC3(CC1)COc1ccc(F)cc13)C2 (stereo not drawn) [compound 42] )
Result :: > 85%

###

- assayTarget: M4 muscarinic receptor (Homo sapiens)
- Construct: expressed in transfected cells; host or cells: CHO (M4-CHO)
- Sequence (P08173 whole entry): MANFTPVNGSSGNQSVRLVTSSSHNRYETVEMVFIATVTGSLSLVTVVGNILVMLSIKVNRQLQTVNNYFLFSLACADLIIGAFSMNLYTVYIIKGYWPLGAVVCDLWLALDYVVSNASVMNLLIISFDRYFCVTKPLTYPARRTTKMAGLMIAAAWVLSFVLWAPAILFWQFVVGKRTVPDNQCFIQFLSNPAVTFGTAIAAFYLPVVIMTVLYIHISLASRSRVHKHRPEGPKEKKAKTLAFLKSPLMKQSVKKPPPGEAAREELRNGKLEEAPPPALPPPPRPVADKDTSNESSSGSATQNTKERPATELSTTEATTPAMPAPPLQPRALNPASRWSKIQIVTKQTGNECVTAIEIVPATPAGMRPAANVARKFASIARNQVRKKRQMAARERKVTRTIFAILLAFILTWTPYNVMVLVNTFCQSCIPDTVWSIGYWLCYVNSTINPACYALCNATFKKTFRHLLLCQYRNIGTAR
- runDescription: Functional mobilization of intracellular calcium (FLIPR) in M4-CHO cells
- Assay type: cell-based
- conditionInfo: M4 receptor, calcium mobilization; read-out: M4 Efficacy
Catalogue of molecules with associated Emax

Sample records with Emax:
>>> df
                                   molecule  experimentalresult
0  COC(=O)N1C2CCC1CC(N1CCC3(CC1)CN(C(=O)N(C)C)c1ccc(F)cc13)C2 (centres unmarked)               < 65%
1  CC(C)OC(=O)N1C2CCC1CC(N1CCC3(CC1)CN(C(=O)O[C@@H]1CCOC1)c1ccc(F)cc13)C2 (some centres unmarked)               < 65%
2  CC(=O)N[C@H]1CC2(CCN(CC3CC4CCC3CC4)CC2)c2ccccc21 (some centres unmarked)               > 85%
3  O=C(C1CCC1)N1C2CCC1CC(N1CCC3(CC1)COc1ccc(F)cc13)C2 (centres unmarked)               < 65%
4  Clc1ccc2c(c1)C1(CCN([C@H]3C[C@@H]4CC[C@H]3C4)CC1)CO2           65 to 85%
5       Fc1ccc2c(c1)C1(CCN(C3CCOCC3)CC1)CN2           65 to 85%
6  CCCOC(=O)N1C2CCC1CC(N1CCC3(CC1)COc1ccc(F)cc13)C2 (centres unmarked)           65 to 85%
7  COC(=O)N1C2CCC1CC(N1CCC3(CC1)CN(C(=O)c1cc(C)n(C)n1)c1ccc(F)cc13)C2 (centres unmarked)               > 85%
8  CCCOC(=O)N1C2CCC1CC(N1CCC3(CC1)CN(C(=O)N(C)C)c1ccc(F)cc13)C2 (centres unmarked)               < 65%
9  CCOC(=O)N1CCC(CN2CCC3(CC2)C(=O)N(C)c2ccccc23)CC1               < 65%

Query :: Return reported Emax; argument: COCCOC(=O)N1CCC(CN2CCC3(CC2)CN(C(C)=O)c2ccc(F)cc23)CC1
Result :: < 65%

Query :: Next molecule: O=C1Nc2ccccc2C12CCN(CC1CC3C=CC1C3)CC2 (centres unmarked)
Result :: > 85%

Query :: Next molecule: CS(=O)(=O)N1CC2(CCN(C3CC4CCC(C3)N4C(=O)O[C@@H]3CCOC3)CC2)c2cc(F)ccc21 (some centres unmarked)
Result :: 65 to 85%

Query :: Next molecule: CC(=O)N1CC2(CCN(C3CCC[C@@H](C)C3)CC2)c2cc(F)ccc21 (some centres unmarked)
Result :: > 85%
